Exercise: for every item that follows, state its recorded Ki.
# measured.target: CDA variant K27/T70 (Homo sapiens, UniProt P32320, A70T)
# Sequence (P32320 whole entry A70T): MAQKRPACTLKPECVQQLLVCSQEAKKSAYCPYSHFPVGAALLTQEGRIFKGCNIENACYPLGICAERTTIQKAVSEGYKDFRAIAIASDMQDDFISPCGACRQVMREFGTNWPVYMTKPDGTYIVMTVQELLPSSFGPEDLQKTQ
# assay.summary: Inhibition of deoxycytidine deamination, K27/T70 variant
# details: K27/T70; double-reciprocal plots, substrate deoxycytidine
Where a name gives a salt, the structure may show the parent alone.
Remember to follow the number with its unit.

{"columns": ["compound", "Ki"],
 "data": [
  ["O=C1NC(O)CCN1[C@H]1C[C@H](O)[C@@H](CO)O1 (some centres unmarked) [Tetrahydro-2′-deoxyuridine]", "0.26 µM"]
]}

Continue with the compound presented below.
Reported Ki for Nc1ncc([C@@H]2O[C@H](CO)[C@@H](O)[C@H]2O)c(=O)[nH]1 [Pseudoisocytidine-HCl] was 60 µM

----------
Exercise: for every item that follows, state its recorded pKi.
# measured.target: CDA variant Q27/A70 (Homo sapiens, UniProt P32320, K27Q)
# Sequence (P32320 whole entry K27Q): as the sequence (P32320 whole entry A70T) above, with K27Q, T70A counted along it
# assay.summary: Inhibition of deoxycytidine deamination, Q27/A70 variant
# details: Q27/A70; double-reciprocal plots, substrate deoxycytidine
Counter-ions that a name gives are not always drawn.
Give bare numbers, as −log10 of the molar value.

{"columns": ["molecule", "pKi"],
 "data": [
  ["Nc1ncc([C@@H]2O[C@H](CO)[C@@H](O)[C@H]2O)c(=O)[nH]1 [Pseudoisocytidine-HCl]", 4.34]
]}

Continue with the molecule presented below.
Here O=C1NC(O)CCN1[C@H]1C[C@H](O)[C@@H](CO)O1 (some centres unmarked) [Tetrahydro-2′-deoxyuridine] was tested on CDA variant Q27/A70 (Homo sapiens, UniProt P32320, K27Q), and its pKi came to 6.59

----------
# measured.target: CDA variant K27/A70 (Homo sapiens)
# assay.summary: Oxidative resistance experiments, K27/A70 variant
# Format: biochemical
# details: read-out: K0.5, H2O2
measurement.label: pIC50
One number for each entry, as −log10 of the molar value.

Reported pIC50 for OO [H2O2, hydrogen peroxide] was 1.63

----------
# measured.target: CDA variant K27/T70 (Homo sapiens, UniProt P32320, A70T)
# assay.summary: Oxidative resistance experiments, K27/T70 variant
# details: read-out: K0.5, H2O2
measurement.label: pIC50
One number for each entry, as −log10 of the molar value.

Reported pIC50 for OO [H2O2, hydrogen peroxide] was 1.94

----------
# measured.target: CDA mutant E24Q (Homo sapiens, UniProt P32320, E24Q)
# Sequence (P32320 whole entry E24Q): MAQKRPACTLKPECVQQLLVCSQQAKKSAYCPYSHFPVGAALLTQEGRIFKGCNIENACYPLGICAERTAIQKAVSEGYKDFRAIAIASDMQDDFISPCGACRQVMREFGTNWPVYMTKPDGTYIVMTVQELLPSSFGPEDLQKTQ
# assay.summary: Inhibition of deoxycytidine deamination, E24Q mutant
measurement.label: pKi
Numbers only, as −log10 of the molar value.

Reported pKi for Nc1ccn([C@@H]2O[C@H](CO)[C@@H](O)[C@H]2O)c(=O)c1 was 5.54
